All figures here come from ChEMBL document CHEMBL4177573.

This section presents molecules with their documented AUC(0-t) at 24 h values.
assay: AUC (0 to 24 hrs) in C57BL/6J mouse at 1 mg/kg, sc measured during 5 mins to 24 hrs by LC/MS/MS method; format: ADME, organism-based; parameters: time < 24 hr, dose 1 mg/kg, route subcutaneous; conditions: in vivo
ENDPOINT_NAME: AUC(0-t) at 24 h (µM·h)

• CC[C@](C)(NC(=O)[C@H]1C[C@H](O)CN1C(=O)[C@H](CO)NC(=O)c1c[nH]cn1)C(=O)N[C@@H](Cc1ccncc1)C(=O)N[C@@H](CC1CCCCC1)C(=O)N[C@@H](CC(C)(C)C)C(=O)N[C@@H](CC(N)=O)C(=O)N[C@@H](CCCCN)C(=O)NC(C)(C)C(=O)N[C@H](C(=O)N[C@@H](CCCNC(=N)N)C(=O)N[C@@H](CCC(N)=O)C(=O)N[C@@H](CCCNC(=N)N)C(=O)N[C@@H](CC1CCCCC1)C(N)=O)[C@@H](C)O = 0.347
• CC[C@](C)(NC(=O)[C@H](CC1CCCCC1)NC(=O)[C@H](Cc1ccncc1)NC(=O)[C@](C)(CC)NC(=O)[C@H]1C[C@H](O)CN1C(=O)[C@H](CO)NC(C)=O)C(=O)N[C@@H](CC(N)=O)C(=O)N[C@@H](CCCCN)C(=O)NC(C)(C)C(=O)N[C@H](C(=O)N[C@@H](CCCNC(=N)N)C(=O)N[C@@H](CCC(N)=O)C(=O)N[C@@H](CCCNC(=N)N)C(=O)N[C@@H](CC1CCCCC1)C(N)=O)[C@@H](C)O = 0.469
• CC[C@](C)(NC(=O)[C@H]1CCCN1C(=O)[C@H](CO)NC(C)=O)C(=O)N[C@@H](Cc1ccncc1)C(=O)N[C@@H](CC1CCCCC1)C(=O)NC(C)(C)C(=O)N[C@@H](CC(N)=O)C(=O)N[C@@H](CCCCN)C(=O)NC(C)(C)C(=O)N[C@H](C(=O)N[C@@H](CCCNC(=N)N)C(=O)N[C@@H](CCC(N)=O)C(=O)N[C@@H](CCCNC(=N)N)C(=O)N[C@@H](CC1CCCCC1)C(N)=O)[C@@H](C)O = 0.125
